These measurements were taken from the supplement of paper PMC7877785.

Some sequences, each annotated with its measured self-splicing fitness (ln).
# assayName: self-splicing fitness, log relative to wild type (ln ratio); higher = more splicing; Tetrahymena group I intron in knt gene, E. coli kanamycin selection, DiMSum; sequences stand for … in CUCUCU…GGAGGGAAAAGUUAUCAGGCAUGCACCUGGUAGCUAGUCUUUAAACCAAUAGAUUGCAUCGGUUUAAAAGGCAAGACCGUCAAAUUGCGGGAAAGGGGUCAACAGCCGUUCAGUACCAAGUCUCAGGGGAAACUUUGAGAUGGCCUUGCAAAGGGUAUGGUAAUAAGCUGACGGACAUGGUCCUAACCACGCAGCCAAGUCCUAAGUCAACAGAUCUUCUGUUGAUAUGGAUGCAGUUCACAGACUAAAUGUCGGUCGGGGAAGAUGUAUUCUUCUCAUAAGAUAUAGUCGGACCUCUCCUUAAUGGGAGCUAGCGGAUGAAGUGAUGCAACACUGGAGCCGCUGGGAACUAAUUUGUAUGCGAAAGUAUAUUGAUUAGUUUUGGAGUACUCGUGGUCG;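 also: selection with 25 µg/mL kanamycin versus none on LB agar overnight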
# runConditions: 37 °C
// no unit string in output, number only

Would you please look over these solved cases?
UUCUAGCAAUAUUACGGCGC | -2.7
UUCGAGCAAUAUUACGUACU | -2.01
UGUAAGCAAUAUUACGCGCC | -0.53

Returns the measured self-splicing fitness (ln) for the input sequence. Input: `CUCUAGCAAUAUUACGUUUU`
-3.15

Also check `AUACAGCAAUAUUACGGCGA`
-0.781

And the next one, `UAGUAGCAAUAUUACGUGGC` ?
-2.59

Try `AGCGAGCAAUAUUACGAUCG` next.
-1.63

Same lookup for `UCUCAGCAAUAUUACGAUUU` , please.
-1.1

Next record, please: `AUACAGCAAUAUUACGACGC`
0.227

---

# assayName: self-splicing fitness, log relative to wild type (ln ratio); higher = more splicing; Tetrahymena group I intron in knt gene, E. coli kanamycin selection, DiMSum; sequences stand for … in CUCUCU…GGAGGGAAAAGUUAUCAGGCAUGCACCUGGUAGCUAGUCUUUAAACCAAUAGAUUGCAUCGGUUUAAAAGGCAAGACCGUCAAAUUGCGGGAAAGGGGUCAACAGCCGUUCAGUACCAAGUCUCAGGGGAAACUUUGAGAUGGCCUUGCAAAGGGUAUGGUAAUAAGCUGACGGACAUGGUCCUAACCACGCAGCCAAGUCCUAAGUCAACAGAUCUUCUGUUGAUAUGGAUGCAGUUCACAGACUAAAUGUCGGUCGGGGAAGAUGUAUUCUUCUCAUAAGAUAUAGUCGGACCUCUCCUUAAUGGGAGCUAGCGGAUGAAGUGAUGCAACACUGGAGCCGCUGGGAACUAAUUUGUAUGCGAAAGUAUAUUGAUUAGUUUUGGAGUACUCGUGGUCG
# runConditions: 37 °C
testReadout: self-splicing fitness (ln)

Example cases with answers are listed next.
GUACAGCAAUAUUACGUCGC | -0.812
CGUUAGCAAUAUUACGGUGG | -0.115
CCGCAGCAAUAUUACGUUCG | -0.0727
GUACAGCAAUAUUACGGACG | -0.547
GAGCAGCAAUAUUACGUCCA | -0.418

Report self-splicing fitness (ln) for `AACCAGCAAUAUUACGGCUA` please.
0.0992

---

# assayName: self-splicing fitness, log relative to wild type (ln ratio); higher = more splicing; Tetrahymena group I intron in knt gene, E. coli kanamycin selection, DiMSum; sequences stand for … in CUCUCU…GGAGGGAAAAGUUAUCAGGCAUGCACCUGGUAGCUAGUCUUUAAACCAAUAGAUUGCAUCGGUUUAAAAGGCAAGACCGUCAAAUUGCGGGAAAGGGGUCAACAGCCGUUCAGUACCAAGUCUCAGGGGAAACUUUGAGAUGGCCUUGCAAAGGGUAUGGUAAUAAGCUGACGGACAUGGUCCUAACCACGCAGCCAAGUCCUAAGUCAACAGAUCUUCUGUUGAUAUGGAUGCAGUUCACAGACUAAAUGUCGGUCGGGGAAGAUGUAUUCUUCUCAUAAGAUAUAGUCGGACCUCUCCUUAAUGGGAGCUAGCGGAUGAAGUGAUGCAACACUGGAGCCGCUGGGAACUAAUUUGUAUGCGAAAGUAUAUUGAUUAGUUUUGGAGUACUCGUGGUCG
# runConditions: 37 °C
Label met when self-splicing fitness (ln) >= -2; otherwise not met.

CCCGAGCAAUAUUACGAUGG | met
CCUCAGCAAUAUUACGUAGC | not met
AGUUAGCAAUAUUACGCGUA | met
UCCAAGCAAUAUUACGAUGA | met
CAAAAGCAAUAUUACGUAGG | met
UAGCAGCAAUAUUACGACCU | met
ACUGAGCAAUAUUACGCCAA | not met
UACAAGCAAUAUUACGUGUA | not met
ACGCAGCAAUAUUACGAAUG | met
GCUAAGCAAUAUUACGGUGU | met

Given `AAAAAGCAAUAUUACGGGCU` , state whether its self-splicing fitness (ln) is at least -2.
met

And then `UGCCAGCAAUAUUACGCAUC` , what is it?
not met

Check `GCAGAGCAAUAUUACGACAA` too.
met

`AAAUAGCAAUAUUACGUUCU` ?
met

Moving on to `CUUGAGCAAUAUUACGUCUU`
not met

Then `GUGAAGCAAUAUUACGGCCU` ?
met

Now try `UCUUAGCAAUAUUACGUUAC` .
not met

---

# assayName: self-splicing fitness, log relative to wild type (ln ratio); higher = more splicing; Tetrahymena group I intron in knt gene, E. coli kanamycin selection, DiMSum; sequences stand for … in CUCUCU…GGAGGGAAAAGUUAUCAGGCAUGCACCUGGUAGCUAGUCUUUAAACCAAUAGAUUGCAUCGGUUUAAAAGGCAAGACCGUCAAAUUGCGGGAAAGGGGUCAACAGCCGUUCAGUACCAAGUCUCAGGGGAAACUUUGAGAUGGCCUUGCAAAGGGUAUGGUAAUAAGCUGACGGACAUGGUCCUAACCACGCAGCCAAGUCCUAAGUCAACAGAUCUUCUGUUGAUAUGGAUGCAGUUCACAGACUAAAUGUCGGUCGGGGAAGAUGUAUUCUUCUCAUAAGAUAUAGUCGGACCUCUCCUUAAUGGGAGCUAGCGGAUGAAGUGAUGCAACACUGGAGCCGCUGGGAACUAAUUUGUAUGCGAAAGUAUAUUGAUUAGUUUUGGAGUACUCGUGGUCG
# runConditions: 37 °C
Records here are stratified by self-splicing fitness (ln); strata: bottom bin: < -2; middle bin: ≥ -2 and < -1; top bin: ≥ -1

Lab log: `GCCGAGCAAUAUUACGCUAG` — assign self-splicing fitness (ln) category
bottom bin

Also `GAUCAGCAAUAUUACGAUUC` ?
middle bin

Same for `GGCAAGCAAUAUUACGGUGA`
top bin

Now try `GUACAGCAAUAUUACGGGAU` .
bottom bin

Also check `UGGAAGCAAUAUUACGGAGA`
middle bin

---

# assayName: self-splicing fitness, log relative to wild type (ln ratio); higher = more splicing; Tetrahymena group I intron in knt gene, E. coli kanamycin selection, DiMSum; sequences stand for … in CUCUCU…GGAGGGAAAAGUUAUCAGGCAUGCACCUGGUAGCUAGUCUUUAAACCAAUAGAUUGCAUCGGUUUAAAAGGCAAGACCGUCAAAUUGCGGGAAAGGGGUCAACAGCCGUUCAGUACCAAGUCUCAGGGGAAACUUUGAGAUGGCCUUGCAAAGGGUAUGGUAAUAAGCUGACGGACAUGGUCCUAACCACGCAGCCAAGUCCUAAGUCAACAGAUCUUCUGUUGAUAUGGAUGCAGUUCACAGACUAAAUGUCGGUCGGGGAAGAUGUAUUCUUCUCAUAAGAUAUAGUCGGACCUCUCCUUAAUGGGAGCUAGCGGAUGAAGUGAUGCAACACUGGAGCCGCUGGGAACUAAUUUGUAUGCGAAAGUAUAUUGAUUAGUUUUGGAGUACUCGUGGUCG
# runConditions: 37 °C
testReadout: self-splicing fitness (ln)
Number only, no unit.

Look over these answered cases.
AGUAAGCAAUAUUACGCAUU | -2.26
UCCAAGCAAUAUUACGAUCU | -2.56
GCAUAGCAAUAUUACGGAUC | -1.63
CAGCAGCAAUAUUACGUAAG | 0.0316
AAUCAGCAAUAUUACGCUGG | -2.87

GET /values?readout=self-splicing fitness (ln)&item= `AAAGAGCAAUAUUACGGGCC`
-1.86

Next record, please: `UGAAAGCAAUAUUACGACUC`
-1.88

Also check `UUUUAGCAAUAUUACGAGCG`
-1.33

Do the same for `CUCCAGCAAUAUUACGAAAA` please
-1.89

Try this sequence next: `ACAGAGCAAUAUUACGCAUC`
-2.59

Please give the result for `CGUUAGCAAUAUUACGUUCA` too.
-0.192

Entry to check: `GCCGAGCAAUAUUACGAGUC`
-0.892

# iterate: `ACGUAGCAAUAUUACGUAUA`
-2.1

Try the sequence `UGUUAGCAAUAUUACGUGUG`
-0.724

Repeat for the following sequence: `GCGGAGCAAUAUUACGUAGC`
-2.38

Please answer likewise for `CUUGAGCAAUAUUACGUGUU`
-2.54

Likewise for `GUUUAGCAAUAUUACGCCGU` ?
-0.93

Okay, and `GCCCAGCAAUAUUACGGGUG` ?
-0.819
